- system_under_test: T1, apical domain of human CD71 (human, UniProt P02786 189-383, limits assumed)
- T1 construct: domain: apical domain; Screen 4 panned on human apical domains, the ELISA text says only 'apical domain'
- run_description: primary ELISA, RLU over HSA
observed_property: Apical domain:HSA

binder | quantitative_result
CD71-binding FN3 domain of SEQ ID NO: 465 (designed binder) MLPAPKNLVVSRVTEDSARLSWTAPDAAFDSFFIGYLEPQPPGEAIDLYVPGSERSYDLTGLKPGTEYNVTIQGVKGGFPSEPLWADFTT | 138
CD71-binding FN3 domain of SEQ ID NO: 528 (designed binder) MLPAPKNLVVSRVTEDSARLSWTAPDAAFDSFFIGYLEPQPPGEAITLLVPGSERSYDLTGLKPGTEYNVTIQGVKGGFPSIPLIAIFTT | 182
